# system: tubulin
# assay_notes: inhibition of [3H]vinblastine binding
measured_attribute: Ki (µM)
Answers are plain numbers, in µM.

Problem: Data request, read-out Ki, for C/C=C/C(O)C(C)(C)[C@@H]1C\C=C/C=C\C=C/[C@H](OC)Cc2nc(co2)C(=O)O[C@H](C(C)(C)C(O)/C=C/C)C/C=C\C=C/C=C[C@H](OC)Cc2nc(co2)C(=O)O1 (stereo partly shown)
Result: 4.5

Measured values drawn from paper PMC2649750 for this set.
